Give growth for every item shown.
Test system: HT29 colon
testSummary: NCI-60 one-dose screen, 48 h (100 = growth as untreated, 0 = no growth, -100 = all killed)
experimentalParameters: 10 µM unless noted
Compounds without any hit were thinned out: in the full panel of roughly 83,000, 20% have a hit.
One number for each entry, in %.

1. O=S(=O)(NCCNc1nccc(-c2c(-c3cccc(O)c3)nc3occn23)n1)c1ccc(C(F)(F)F)cc1 72.9
2. Cn1nc(CC#N)c2c(=N)n(N)cnc21 116
3. CC(=O)c1cc2c(N)c(C(=O)Nc3cccc4ccncc34)sc2nc1C 104
4. COc1ccc2nc(-c3ccc(-c4noc(-c5cc(OC)c(OC)c(OC)c5)n4)cc3)[nH]c2c1 20.2

Please turn your attention to the following entry.
// sample O=C(/C=C(/C=C/c1coc2ccccc12)OB(F)F)/C=C/c1coc2ccccc12 , its growth was 100
